molecular target: anti-H3K4me3 antibody ab8580; test: peptide microarray binding signal (635 nm), min-max normalized on array (fraction of array maximum); higher = stronger binding; settings: peptide region: Unmod H4 variant; binder concentration: 1:10,000 dilution

| BINDER | peptide microarray binding signal |
| --- | --- |
| IQGITKPAIRRLA [Unmod H4 variant I Q G I T K P A I R R L A] | 0.0159 |
| GVLKVFLENVIRD [Unmod H4 variant G V L K V F L E N V I R D] | 0.00097 |
| GKGGAKRHRKVLR [Unmod H4 variant G K G G A K R H R K V L R] | 0.000856 |
| FLENVIRDAVTYT [Unmod H4 variant F L E N V I R D A V T Y T] | 0.00519 |

The reported numbers originate from the supplement of paper PMC4022240.
